Where these numbers come from: patent US20230065799A1

Answer each item with its documented Emax.
Experimental system: OR8B3 (Homo sapiens, UniProt Q8NGG8)
Construct: Lucy (cleavable signal peptide) (N); FLAG (N); Rho (first 20 aa of bovine rhodopsin) (N); expressed in transfected cells
Sequence (Q8NGG8 1-313): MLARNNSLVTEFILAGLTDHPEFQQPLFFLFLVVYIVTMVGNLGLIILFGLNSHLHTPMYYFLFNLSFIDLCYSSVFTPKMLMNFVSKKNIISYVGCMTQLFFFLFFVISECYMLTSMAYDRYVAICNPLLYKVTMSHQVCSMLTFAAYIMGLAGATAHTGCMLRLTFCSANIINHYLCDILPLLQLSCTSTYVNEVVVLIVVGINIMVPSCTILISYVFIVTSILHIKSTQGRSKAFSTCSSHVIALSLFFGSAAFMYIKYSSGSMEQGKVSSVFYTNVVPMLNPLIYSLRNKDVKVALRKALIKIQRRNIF
Experiment description: OR8B3 cell-based cAMP HTRF assay
Conditions: dose-response; 100% = full agonist; read-out: OR8B3 % Efficacy
Numbers only, in %.

CCCCC1OC(=O)CC1C (stereo not shown) [Whiskey Lactone K, 5-butyl-4-methyloxolan-2-one]: 88

// input: 3 compounds below; output: Emax for each
1. CCCCC1CCCC(=O)O1 (stereo not shown) [Nonalactone Delta, 6-butyloxan-2-one]
2. CCCCC1CCC(=O)O1 (stereo not shown) [Gamma Octalactone, 5-butyloxolan-2-one]
3. O=c1ccc2ccccc2o1 [Coumarin, chromen-2-one]

97
100
95
